- experimentalTarget: T1, human delta opioid receptor (human, UniProt P41143 1-372)
- T1 construct: whole, on cells; Assays were done on membranes of CHO cells expressing the cloned human receptor; also called DOR; delta receptor
- T1 sequence (P41143 whole entry, stated change not applied): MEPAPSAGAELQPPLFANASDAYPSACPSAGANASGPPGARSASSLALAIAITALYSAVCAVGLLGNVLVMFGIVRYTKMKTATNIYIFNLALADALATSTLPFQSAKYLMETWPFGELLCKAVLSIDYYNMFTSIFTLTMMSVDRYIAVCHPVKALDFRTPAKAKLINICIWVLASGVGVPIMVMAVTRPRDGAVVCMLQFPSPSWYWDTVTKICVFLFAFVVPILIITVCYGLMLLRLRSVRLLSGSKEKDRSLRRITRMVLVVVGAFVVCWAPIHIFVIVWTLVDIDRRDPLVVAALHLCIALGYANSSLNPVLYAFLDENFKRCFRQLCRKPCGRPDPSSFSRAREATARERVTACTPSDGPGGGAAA
- measurementDescription: radioligand competition vs 3H-DPDPE, membranes of CHO cells expressing cloned human delta receptor
Non-standard residues stand in square brackets, D forms with d. No end group written: not given here. *: point of attachment. NMeF = CN[C@@H](Cc1ccccc1)C(=O)O; NHCH2CH2OH = OCCN*
recordedMetric: Ki (nM)
Reply with just the number (in nM).

Q: Reported Ki, binder Y[dA]G[NMeF][NHCH2CH2OH] (not fully specified (C-terminus); printed as Tyr-D-Ala2-N-MePhe4-Gly-ol; also: tritiated where used as radioligand, CAS #78123-71-4; also called DAMGO; 3H-DAMGO) [[D-Ala2, N-Me-Phe4, Gly-ol]-enkephalin] : ____
A: 589
